- Test system: UACC-62 melanoma
- testDescription: NCI tumour cell line growth inhibition, 48 h
Task for the reader: assign each of the following compounds its reported TGI.

Consider the following illustrative entries.
COC(=O)C1(Cc2ccc3c(c2)CCC3)Cc2ccccc2C1: > 100 µM
COc1cc(NC(C)=O)ccc1C(=O)NN1C(=O)/C(=C/c2ccco2)N=C1c1ccccc1: > 50 µM
Nc1ccc(/C=C/C(=O)NCc2cc3cc(-c4ccc(C(=O)N5CCC(F)(F)CC5)cc4)cc(-c4ccc(F)cc4)c3o2)cn1: > 100 µM
CC(=O)/C(=C/c1ccccc1F)C(=O)c1ccccc1: > 100 µM
CC(=O)c1ccc2c(c1)CC1(C2)Cc2ccccc2C1=O (stereo not drawn): > 100 µM
COC1CC(OC2CCC3(C)C(=CCC4C3C(OC(C)=O)C(OC(=O)CC(C)C)C3(C)C(C(C)=O)CCC43O)C2)OC(C)C1OC1CC(OC)C(OC2CC(OC)C(OC3OC(C)C(OC4OC(CO)C(O)C(O)C4O)C(OC)C3O)C(C)O2)C(C)O1 (stereo not drawn): > 75 µM

Hi, could you look up TGI for each item in my list?
1. O=c1c2cc(Br)ccc2nc(CCl)n1-c1ccc(O)c([N+](=O)[O-])c1
2. CCC(=O)Nc1nc2c(ncn2C2OC(COC(=O)CC)C(OC(=O)CC)C2OC(=O)CC)c(=O)[nH]1 (stereo not drawn)

1: 72.5 µM; 2: > 100 µM
